The origin of these recorded values is ChEMBL document CHEMBL5724696.

# System: U2OS
# ASSAY TEXT: Here: values are normalized to the negative (DMSO; defined as 0% autophagy induction) and positive (250nM Torin1; mTOR inhibitor; defined as maximal inducer of autophagy = 100%) control compounds and represented as % of autophagy induction. […] The impact of autophagy induction on cells is complex and depends on the affected target. As such, the magnitude of a phenotype may not be equally mirrored in the %-value of autophagy induction and vice versa. The dynamics of the induction may indicate the mode of activation: e.g. activation via phosphorylation or a signaling cascade may occur fast, while activation via transcription factors may take considerably longer. […] Of note, treatment concentrations may be sub-optimal for specific compounds, leading to false negative annotations.
# Assay type: functional, Homo sapiens
# CONDITIONS: Compound Concentration 2 uM, Timepoint 12 hours, Culturing Media DMEM, 1 % Penicillin/Streptomycin, 10% Fetal bovin serum Add-On: No, Screening Media Control DMEM, Screening Media Samples DMEM
Here, each record is paired with measured autophagy induction data.
VALUE TYPE: autophagy induction

# SMILES RECORD, TARGET OR TEST SYSTEM, VALUE TYPE, EXPERIMENTAL VALUE
measured = [
    ("CNc1nc(NCc2ccc(NS(C)(=O)=O)cc2Cl)cc(-c2ccccn2)n1", "U2OS", "autophagy induction", "-0.6465%"),
    ("O=C(Cc1ccccc1)Nc1nc2ccc(Cl)cc2c2nc(-c3ccco3)nn12", "U2OS", "autophagy induction", "-7.203%"),
    ("O=C(O)CC1CCC2(CC1)CCN(c1cc(OC(F)(F)F)ccc1Cl)CC2", "U2OS", "autophagy induction", "4.528%"),
    ("N[C@H](C(=O)O)c1ccc(C(=O)O)c(C(=O)O)c1", "U2OS", "autophagy induction", "4.454%"),
    ("CCCCCCCCCCCCCCCCOC[C@H](COP(=O)([O-])OCC[N+](C)(C)C)OC(C)=O", "U2OS", "autophagy induction", "-5.387%"),
    ("N#Cc1c[nH]c2c(C(=O)N3CCN(CCc4ccc(F)cc4)CC3)cccc12", "U2OS", "autophagy induction", "-0.5957%"),
    ("Cc1c(F)cccc1NC(=O)Nc1ccc(Cl)c(S(=O)(=O)[C@H]2CCCNC2)c1O", "U2OS", "autophagy induction", "-1.664%"),
    ("CCc1ccc(OCc2ccccc2C(=O)Nc2ccc3nc(C)cc(N)c3c2)cc1.Cl", "U2OS", "autophagy induction", "-46.9081%"),
    ("COc1ccc(/C=C/CCCCOc2ccc(C(=O)c3cccc(C(=O)O)c3)cc2CCC(=O)O)cc1", "U2OS", "autophagy induction", "2.991%"),
]
